target: KvLQT1/minK (Homo sapiens, UniProt P51787); test: SAFETYScan Ion Channel, Opener; conditions: read-out: RC50 (EC50)
pEC50: −log10 of the molar value.
measuredProperty: pEC50

Recorded pEC50 of C[C@H]1C[C@@H](O)CN(c2ncc(Cl)c(Nc3ccc4c(c3)c3c(c(=O)n4C)OCC(F)(F)[C@H](C4CC4)N3)n2)C1 [12a CCT373566] , please.
< 5.00

* * *

assay: logD7.4 assay (Chrom log D method); assay type: physicochemical; settings: reversed-phase HPLC on Phenomenex Luna C8 column, pH 7.4, read-out: Measured logD7.4
measuredProperty: chromatographic logD
Write the value as a bare number.

Observe how each entry below is paired with its result.
* C[C@H]1C[C@H](O)CN(c2ncc(Cl)c(Nc3ccc4c(c3)c3c(c(=O)n4C)OCC(F)(F)[C@H](C4CC4)N3)n2)C1 [13b] | 3.1
* Cn1c(=O)n(CCC(C)(C)O)c2cc(Nc3nc(N4CCC(F)(F)C(CO)C4)ncc3Cl)ccc21 (stereo not drawn) | 2.5

Now consider the entry below.
Recorded chromatographic logD of Cn1c(=O)c2c(c3cc(Nc4nc(N5CCC(F)(F)[C@@H](O)C5)ncc4Cl)ccc31)N[C@@H](C1CC1)C(F)(F)CO2 (single isomer, unassigned) , please.
3

* * *

target: OPRM1 (Homo sapiens, UniProt P35372); assay: SAFETYScan GPCR cAMP, Agonist; conditions: read-out: RC50 (EC50)
Sequence (P35372 whole entry, species assumed): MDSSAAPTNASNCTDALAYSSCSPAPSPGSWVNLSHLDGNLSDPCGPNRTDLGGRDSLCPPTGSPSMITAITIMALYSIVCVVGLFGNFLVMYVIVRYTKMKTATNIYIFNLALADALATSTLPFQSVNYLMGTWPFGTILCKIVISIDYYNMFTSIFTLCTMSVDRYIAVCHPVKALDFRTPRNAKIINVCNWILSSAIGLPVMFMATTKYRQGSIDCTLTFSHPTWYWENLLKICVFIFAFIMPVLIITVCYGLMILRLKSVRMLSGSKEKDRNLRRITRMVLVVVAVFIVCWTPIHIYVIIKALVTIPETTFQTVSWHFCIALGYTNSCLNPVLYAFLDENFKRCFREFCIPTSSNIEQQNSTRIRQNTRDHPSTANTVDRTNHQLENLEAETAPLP
pEC50: −log10 of the molar value.
measuredProperty: pEC50

Recorded pEC50 of C[C@H]1C[C@@H](O)CN(c2ncc(Cl)c(Nc3ccc4c(c3)c3c(c(=O)n4C)OCC(F)(F)[C@H](C4CC4)N3)n2)C1 [12a CCT373566] , please.
< 5.00

* * *

molecular target: VEGFR2 (Homo sapiens)
Sequence (P35968 20-1356, species assumed): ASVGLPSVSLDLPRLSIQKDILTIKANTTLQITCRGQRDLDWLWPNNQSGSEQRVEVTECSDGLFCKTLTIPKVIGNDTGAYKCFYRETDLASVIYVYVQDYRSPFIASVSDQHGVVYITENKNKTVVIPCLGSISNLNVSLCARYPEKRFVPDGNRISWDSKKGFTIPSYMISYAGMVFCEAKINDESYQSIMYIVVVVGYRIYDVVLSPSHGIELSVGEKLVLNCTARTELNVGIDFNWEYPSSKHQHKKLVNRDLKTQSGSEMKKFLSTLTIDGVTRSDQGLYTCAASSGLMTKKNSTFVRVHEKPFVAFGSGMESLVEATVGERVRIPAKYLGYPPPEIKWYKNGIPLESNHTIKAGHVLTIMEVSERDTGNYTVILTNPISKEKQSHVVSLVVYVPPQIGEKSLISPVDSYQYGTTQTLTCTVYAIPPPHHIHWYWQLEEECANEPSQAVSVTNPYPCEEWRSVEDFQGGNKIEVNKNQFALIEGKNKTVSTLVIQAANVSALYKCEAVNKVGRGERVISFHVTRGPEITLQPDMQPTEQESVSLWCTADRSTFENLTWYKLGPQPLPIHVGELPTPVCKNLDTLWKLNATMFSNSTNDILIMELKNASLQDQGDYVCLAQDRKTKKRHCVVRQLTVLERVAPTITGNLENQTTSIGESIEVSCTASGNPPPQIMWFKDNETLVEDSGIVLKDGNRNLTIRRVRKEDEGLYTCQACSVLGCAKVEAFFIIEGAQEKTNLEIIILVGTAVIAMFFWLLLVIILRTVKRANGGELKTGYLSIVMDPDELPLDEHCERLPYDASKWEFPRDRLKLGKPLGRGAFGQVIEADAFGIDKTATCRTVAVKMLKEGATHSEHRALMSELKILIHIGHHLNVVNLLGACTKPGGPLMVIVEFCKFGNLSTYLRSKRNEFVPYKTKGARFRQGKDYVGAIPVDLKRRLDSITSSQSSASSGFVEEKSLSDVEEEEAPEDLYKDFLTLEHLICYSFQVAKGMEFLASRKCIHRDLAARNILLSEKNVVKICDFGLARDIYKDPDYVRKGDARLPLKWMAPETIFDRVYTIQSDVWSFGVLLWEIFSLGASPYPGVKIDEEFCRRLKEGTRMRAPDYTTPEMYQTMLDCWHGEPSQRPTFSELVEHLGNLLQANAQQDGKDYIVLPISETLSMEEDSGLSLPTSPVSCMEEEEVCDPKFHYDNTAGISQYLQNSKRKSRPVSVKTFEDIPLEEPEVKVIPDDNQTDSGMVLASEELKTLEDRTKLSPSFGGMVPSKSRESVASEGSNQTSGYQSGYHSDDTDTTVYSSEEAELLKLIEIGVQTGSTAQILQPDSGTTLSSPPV
measuredProperty: IC50

Recorded IC50 of C[C@H]1C[C@@H](O)CN(c2ncc(Cl)c(Nc3ccc4c(c3)c3c(c(=O)n4C)OCC(F)(F)[C@H](C4CC4)N3)n2)C1 [12a CCT373566] , please.
> 10 µM

* * *

target: ROCK1 (Homo sapiens)
Sequence (Q13464 whole entry, species assumed): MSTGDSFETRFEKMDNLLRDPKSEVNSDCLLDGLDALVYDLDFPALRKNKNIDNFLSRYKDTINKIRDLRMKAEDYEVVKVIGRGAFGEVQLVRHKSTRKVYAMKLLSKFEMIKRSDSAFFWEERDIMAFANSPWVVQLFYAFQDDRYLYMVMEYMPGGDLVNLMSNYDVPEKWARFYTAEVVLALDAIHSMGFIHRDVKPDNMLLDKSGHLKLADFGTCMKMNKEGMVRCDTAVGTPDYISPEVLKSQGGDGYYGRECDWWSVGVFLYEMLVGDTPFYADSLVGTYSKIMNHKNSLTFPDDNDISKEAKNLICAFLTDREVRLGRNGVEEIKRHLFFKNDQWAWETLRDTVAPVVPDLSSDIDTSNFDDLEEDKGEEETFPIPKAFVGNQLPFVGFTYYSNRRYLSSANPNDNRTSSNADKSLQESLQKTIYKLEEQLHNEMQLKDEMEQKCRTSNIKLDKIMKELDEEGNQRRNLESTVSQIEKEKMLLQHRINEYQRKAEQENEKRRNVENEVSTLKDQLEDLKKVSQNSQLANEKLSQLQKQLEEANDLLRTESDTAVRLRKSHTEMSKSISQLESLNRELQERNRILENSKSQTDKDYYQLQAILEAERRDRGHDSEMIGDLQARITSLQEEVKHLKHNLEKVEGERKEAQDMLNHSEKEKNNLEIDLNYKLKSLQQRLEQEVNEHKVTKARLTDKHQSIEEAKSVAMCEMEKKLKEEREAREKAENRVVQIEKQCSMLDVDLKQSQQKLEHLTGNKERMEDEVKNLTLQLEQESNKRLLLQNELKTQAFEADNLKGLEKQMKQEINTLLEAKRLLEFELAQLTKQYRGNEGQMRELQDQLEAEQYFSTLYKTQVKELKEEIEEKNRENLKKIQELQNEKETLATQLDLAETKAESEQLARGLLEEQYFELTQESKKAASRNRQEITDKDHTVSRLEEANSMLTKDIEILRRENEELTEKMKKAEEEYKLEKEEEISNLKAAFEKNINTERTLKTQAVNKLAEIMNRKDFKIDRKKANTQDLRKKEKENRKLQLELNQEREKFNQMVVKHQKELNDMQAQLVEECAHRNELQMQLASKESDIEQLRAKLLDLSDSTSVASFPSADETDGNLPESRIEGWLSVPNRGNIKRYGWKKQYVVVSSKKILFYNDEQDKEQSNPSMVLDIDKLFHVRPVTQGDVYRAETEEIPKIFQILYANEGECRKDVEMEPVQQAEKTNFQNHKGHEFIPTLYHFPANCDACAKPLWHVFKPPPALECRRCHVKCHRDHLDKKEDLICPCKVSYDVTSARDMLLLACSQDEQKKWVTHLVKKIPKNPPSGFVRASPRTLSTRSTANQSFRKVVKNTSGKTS
measuredProperty: IC50

Observed IC50 on ROCK1 (Homo sapiens) for C[C@H]1C[C@@H](O)CN(c2ncc(Cl)c(Nc3ccc4c(c3)c3c(c(=O)n4C)OCC(F)(F)[C@H](C4CC4)N3)n2)C1 [12a CCT373566] , please.
> 10 µM

* * *

target: HRH2 (Homo sapiens, UniProt P25021); construct: expressed in transfected cells; assay: SAFETYScan GPCR cAMP, Antagonist; type: cell-based; conditions: read-out: RC50 (IC50)
Sequence (P25021 whole entry): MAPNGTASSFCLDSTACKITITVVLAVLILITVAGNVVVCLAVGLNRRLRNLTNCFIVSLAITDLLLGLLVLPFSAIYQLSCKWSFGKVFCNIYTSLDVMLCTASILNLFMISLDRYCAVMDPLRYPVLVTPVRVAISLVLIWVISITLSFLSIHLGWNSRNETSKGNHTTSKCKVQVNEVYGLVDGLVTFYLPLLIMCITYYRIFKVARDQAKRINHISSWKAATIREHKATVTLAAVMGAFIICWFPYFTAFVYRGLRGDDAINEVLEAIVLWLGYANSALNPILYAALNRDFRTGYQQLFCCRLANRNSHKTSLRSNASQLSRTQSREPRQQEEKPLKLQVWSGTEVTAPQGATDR
pIC50: −log10 of the molar value.
measuredProperty: pIC50

Recorded pIC50 of C[C@H]1C[C@@H](O)CN(c2ncc(Cl)c(Nc3ccc4c(c3)c3c(c(=O)n4C)OCC(F)(F)[C@H](C4CC4)N3)n2)C1 [12a CCT373566] , please.
< 5.00

* * *

The following compounds are shown together with reported DC50 values.
molecular target: endogenous BCL6 in OCI-Ly1 cells (Homo sapiens); assay: cell-based; settings: read-out: MSD degrader assay [OCI-Ly1] DC50; geometric mean; OCI-Ly1 cells, 2 h incubation
Write it as a number; the unit nM goes unstated.

* C[C@@H]1CCCN(c2ncc(Cl)c(Nc3ccc4c(c3)c3c(c(=O)n4C)OCC(F)(F)[C@H](C4CC4)N3)n2)C1 [15b] | 32.6
* C[C@H]1C[C@@H](N(C)C)CN(c2ncc(Cl)c(Nc3ccc4c(c3)c3c(c(=O)n4C)OCC(F)(F)[C@H](C4CC4)N3)n2)C1 [11a] | 9.8

Recorded DC50 of Cn1c(=O)c2c(c3cc(Nc4nc(N5CCC(F)(F)[C@@H](CO)C5)ncc4Cl)ccc31)N[C@@H](C1CC1)C(F)(F)CO2 , please.
2.7
